# target.entity: Muscarinic acetylcholine receptor M4 (Homo sapiens) (UniProt P08173)
# Sequence (whole entry): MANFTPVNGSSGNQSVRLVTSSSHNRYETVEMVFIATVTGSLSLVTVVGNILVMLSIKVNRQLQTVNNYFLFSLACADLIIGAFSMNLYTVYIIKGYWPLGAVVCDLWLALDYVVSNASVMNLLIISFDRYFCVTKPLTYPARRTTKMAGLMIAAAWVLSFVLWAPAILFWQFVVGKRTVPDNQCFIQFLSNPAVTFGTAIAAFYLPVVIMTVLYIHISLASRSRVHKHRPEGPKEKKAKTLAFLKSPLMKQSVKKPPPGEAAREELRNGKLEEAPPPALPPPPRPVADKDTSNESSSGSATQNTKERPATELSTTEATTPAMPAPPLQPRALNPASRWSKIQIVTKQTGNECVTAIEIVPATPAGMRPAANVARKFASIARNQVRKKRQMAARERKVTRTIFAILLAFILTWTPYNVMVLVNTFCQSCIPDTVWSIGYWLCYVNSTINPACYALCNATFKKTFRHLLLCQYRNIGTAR
# experiment: Binding affinity to human muscarinic M4 receptor expressed in CHO Flp-In cells
# Assay type: cell-based
endpoint.label: Kb (nM)

Here is how some molecules turned out for Kb.
COc1ccc(CNC(=O)c2sc3nc(C)cc(C)c3c2N)cc1F : 2580
COc1ccc(CNC(=O)c2sc3nc(C)cc(C)c3c2N)c(F)c1 : 1820
Cc1cc(C)c2c(N)c(C(=O)NCc3cc(F)cc(F)c3F)sc2n1 : 1290
Cc1cc(C)c2c(N)c(C(=O)NCc3ccc(F)cc3)sc2n1 : 2520
COc1ccc(CNC(=O)c2sc3nc(C)cc(C)c3c2N)c(F)c1F : 1880
Cc1cc(C)c2c(N)c(C(=O)NCc3cccc(F)c3F)sc2n1 : 1720
Cc1cc(C)c2c(N)c(C(=O)NCc3cc(F)ccc3F)sc2n1 : 1690

[1] Cc1cc(C)c2c(N)c(C(=O)NCc3cc(F)c(F)cc3F)sc2n1
[2] COc1cccc(CNC(=O)c2sc3nc(C)cc(C)c3c2N)c1
[3] Cc1cc(C)c2c(N)c(C(=O)NCc3ccccc3F)sc2n1
[4] Cc1cc(C)c2c(N)c(C(=O)NCc3cccc(F)c3)sc2n1
In: Please order the records by their reported Kb, lowest number first. Give the labels in the order specified.
Out: 3, 1, 4, 2
(3: 1170 nM, 1: 2320 nM, 4: 6240 nM, 2: 11400 nM)

---

Consider the following molecules and their measured Emax readings.
# target.entity: UniProtKB P08173
# experiment: Positive allosteric modulation of human muscarinic M4 receptor expressed in CHO Flp-In cells assessed as stimulation of acetylcholine-induced ERK1/2 phosphorylation incubated under green light condition by fluorescence assay relative to control
# Type: cell-based

Cc1cc(C)c2c(N)c(C(=O)NCc3cccc(F)c3)sc2n1 : 98%
COc1ccc(CNC(=O)c2sc3nc(C)cc(C)c3c2N)cc1F : 95%
Cc1cc(C)c2c(N)c(C(=O)NCc3cc(F)c(F)cc3F)sc2n1 : 83%
Cc1cc(C)c2c(N)c(C(=O)NCc3cc(F)ccc3F)sc2n1 : 85%

In: Value lookup for Emax; key = "COc1ccc(CNC(=O)c2sc3nc(C)cc(C)c3c2N)c(F)c1"
Out: 56%
